- Tgt: Monoacylglycerol lipase (Mycobacterium tuberculosis H37Rv)
- Test description: Inhibition of Mycobacterium tuberculosis Rv0183 pre-incubated for 30 mins with enzyme before substrate addition by pH-stat technique
The source made the active and inactive calls. The calls are words filed in the database; no cut-off is given here.
Recorded metric: XI50

Please review the following examples before continuing.
CO[P@]1(=O)CC[C@@H]2COC(=O)C2=C(C)O1 (racemic) : 43.2 molar excess
CCCCC[C@@H]1CC[P@](=O)(OC)OC(C)=C1C(=O)OC (racemic) : 3.79 molar excess
CCCCCCCCCC[C@@H]1CC[P@@](=O)(OC)OC(C)=C1C(=O)OC (racemic) : 1.13 molar excess
COC(=O)C1=C(C)OP(=O)(OC)CCC1 (racemic) : 30.5 molar excess
CCCCCCCCCCCCCCCCCC[C@@H]1CC[P@](=O)(OC)OC(C)=C1C(=O)OC (racemic) : > 100 molar excess

**Query** Lookup: XI50 / Monoacylglycerol lipase (Mycobacterium tuberculosis H37Rv) / CO[P@@]1(=O)CC[C@@H]2COC(=O)C2=C(C)O1 (racemic)
**Result** 41.6 molar excess

**Query** Field: XI50 (Monoacylglycerol lipase (Mycobacterium tuberculosis H37Rv)). Entry: CCCCCCCCCCC[C@@H](C[C@@H]1OC(=O)[C@H]1CCCCCC)OC(=O)[C@H](CC(C)C)NC=O
**Result** > 200 molar excess

**Query** What reported XI50 corresponds to CCCCC[C@@H]1CC[P@@](=O)(OC)OC(C)=C1C(=O)OC (racemic) on Monoacylglycerol lipase (Mycobacterium tuberculosis H37Rv)?
**Result** 2.7 molar excess

**Query** # returns recorded XI50 (system: Monoacylglycerol lipase (Mycobacterium tuberculosis H37Rv)) for CCCCCCCCCCCCCCCC[C@@H]1CC[P@](=O)(OC)OC(C)=C1C(=O)OC (racemic)
**Result** > 100 molar excess

**Query** // fetch Monoacylglycerol lipase (Mycobacterium tuberculosis H37Rv) XI50 for CO[P@]1(=O)OC[C@H]2COC(=O)C2=C(C)O1 (racemic)
**Result** 5.22 molar excess

**Query** Provide value of XI50 for this record tested with Monoacylglycerol lipase (Mycobacterium tuberculosis H37Rv): CCCCCCCCCCCC[C@@H]1CC[P@](=O)(OC)OC(C)=C1C(=O)OC (racemic)
**Result** 2.44 molar excess

**Query** For the record CCCCCCCCCC[C@@H]1CC[P@](=O)(OC)OC(C)=C1C(=O)OC (racemic) , what value of XI50 is listed for Monoacylglycerol lipase (Mycobacterium tuberculosis H37Rv)?
**Result** 3.57 molar excess

**Query** Entry COP1(=O)CCCC(CO)=C(C)O1 (racemic) , system Monoacylglycerol lipase (Mycobacterium tuberculosis H37Rv): what XI50 was measured?
**Result** inactive

**Query** Request - read-out XI50 | tested on Monoacylglycerol lipase (Mycobacterium tuberculosis H37Rv) | molecule CCCCCCCCCCCCCCCCCCOP1(=O)CCCC(C(=O)OC)=C(C)O1 (stereo not drawn)
**Result** inactive

**Query** Quick check: XI50 on Monoacylglycerol lipase (Mycobacterium tuberculosis H37Rv), item CCCCCCCCCCCC[C@@H]1CC[P@@](=O)(OC)OC(C)=C1C(=O)OC (racemic) ?
**Result** 5.23 molar excess

---

- Test system: Mycobacterium tuberculosis
- Test description: Inhibition of Mycobacterium tuberculosis LipY pre-incubated for 30 mins with enzyme before substrate addition by pH-stat technique
# XI50 listing for each entry below

Some solved entries appear below for comparison.
CCCCCCCCCCCCCCCCOP1(=O)CCCC(C(=O)OC)=C(C)O1 (configuration not stated) : 0.83 molar excess
CCCCC[C@@H]1CC[P@](=O)(OC)OC(C)=C1C(=O)OC (racemic) : > 100 molar excess
CCCCCCCCCCCCCCCC[C@@H]1CC[P@](=O)(OC)OC(C)=C1C(=O)OC (racemic) : 3.47 molar excess
CO[P@]1(=O)CC[C@@H]2COC(=O)C2=C(C)O1 (racemic) : > 100 molar excess
CCCCCCCCCC[C@@H]1CC[P@@](=O)(OC)OC(C)=C1C(=O)OC (racemic) : 2.81 molar excess
CCCCCCCCCCC[C@@H](C[C@@H]1OC(=O)[C@H]1CCCCCC)OC(=O)[C@H](CC(C)C)NC=O : 7.07 molar excess
CCCCCCCCCCCC[C@@H]1CC[P@](=O)(OC)OC(C)=C1C(=O)OC (racemic) : 6.14 molar excess
CCCCC[C@@H]1CC[P@@](=O)(OC)OC(C)=C1C(=O)OC (racemic) : > 100 molar excess

Next molecule, please.
**Query** So what's the measured XI50 for this one? CCCCCCCCCCCCCCCC[C@@H]1CC[P@@](=O)(OC)OC(C)=C1C(=O)OC (racemic)
**Result** 0.6 molar excess

---

- Tgt: Cutinase 1 (Fusarium vanettenii) (UniProt P00590)
- Test description: Inhibition of Fusarium solani pisi cutinase pre-incubated for 30 mins with enzyme before substrate addition by pH-stat technique
I'd appreciate it if you marked entries 1 when XI50 is lower than 2 molar excess and 0 when it is not.

CO[P@@]1(=O)CC[C@@H]2COC(=O)C2=C(C)O1 (racemic) : 0

**Query** Record CO[P@]1(=O)CC[C@@H]2COC(=O)C2=C(C)O1 (racemic) : is its XI50 strictly below 2 molar excess?
**Result** 0

**Query** Criterion: XI50 strictly below 2 molar excess. Is it met by CCCCCCCCCCCCCCCC[C@@H]1CC[P@@](=O)(OC)OC(C)=C1C(=O)OC (racemic) ?
**Result** 0

---

- Tgt: UniProtKB P00590
- Sequence (whole entry): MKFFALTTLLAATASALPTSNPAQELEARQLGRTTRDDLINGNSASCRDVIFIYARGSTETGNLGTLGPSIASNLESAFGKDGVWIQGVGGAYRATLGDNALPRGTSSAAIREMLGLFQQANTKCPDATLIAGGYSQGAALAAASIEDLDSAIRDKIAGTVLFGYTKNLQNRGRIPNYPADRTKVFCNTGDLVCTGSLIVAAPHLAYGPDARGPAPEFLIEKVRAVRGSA
- Test description: Inhibition of Fusarium solani pisi cutinase pre-incubated for 30 mins with enzyme before substrate addition by pH-stat technique
Could you please classify the records by XI50 using these ranges: Low: < 1 molar excess; Medium: ≥ 1 molar excess and < 4 molar excess; High: ≥ 4 molar excess

Would you please look over these solved cases?
CCCCC[C@@H]1CC[P@](=O)(OC)OC(C)=C1C(=O)OC (racemic) : High
CCCCCCCCCCCC[C@@H]1CC[P@](=O)(OC)OC(C)=C1C(=O)OC (racemic) : Medium
CCCCCCCCCC[C@@H]1CC[P@](=O)(OC)OC(C)=C1C(=O)OC (racemic) : High
COC(=O)C1=C(C)OP(=O)(OC)CCC1 (racemic) : Medium
CCCCCCCCCCCCCCCC[C@@H]1CC[P@](=O)(OC)OC(C)=C1C(=O)OC (racemic) : High
CCCCCCCCCCCCCCCCCCOP1(=O)CCCC(C(=O)OC)=C(C)O1 (centres undefined) : Low
CCCCCCCCCCCCCCCCOP1(=O)CCCC(C(=O)OC)=C(C)O1 (centres undefined) : Low
CCCCCCCCCCC[C@@H](C[C@@H]1OC(=O)[C@H]1CCCCCC)OC(=O)[C@H](CC(C)C)NC=O : Medium

Now for a further molecule.
**Query** The entry to classify is CCCCCCCCCC[C@@H]1CC[P@@](=O)(OC)OC(C)=C1C(=O)OC (racemic) ; which class holds it?
**Result** Medium

---

- Tgt: Monoacylglycerol lipase (Mycobacterium tuberculosis H37Rv)
- Test description: Inhibition of Mycobacterium tuberculosis Rv0183 pre-incubated for 30 mins with enzyme before substrate addition by pH-stat technique
Recorded metric: XI50

CCCCCCCCCCCCCCCC[C@@H]1CC[P@@](=O)(OC)OC(C)=C1C(=O)OC (racemic) : 1.32 molar excess

# evaluate next
**Query** Field request: XI50 | item: CCCCCCCCCCCCCCCCCC[C@@H]1CC[P@@](=O)(OC)OC(C)=C1C(=O)OC (racemic)
**Result** 3.15 molar excess

---

Recorded XI50 for the following compounds
- Test system: Mycobacterium tuberculosis
- Test description: Inhibition of Mycobacterium tuberculosis LipY pre-incubated for 30 mins with enzyme before substrate addition by pH-stat technique

**Query** Form field: XI50 recorded for COC(=O)C1=C(C)OP(=O)(OC)CCC1 (racemic) with Mycobacterium tuberculosis (enter value)
**Result** > 100 molar excess

**Query** Value wanted: XI50 (Mycobacterium tuberculosis) of entry CCCCCCCCCCCCCCCCCCOP1(=O)CCCC(C(=O)OC)=C(C)O1 (stereo not drawn)
**Result** 0.59 molar excess

**Query** What value of XI50 on Mycobacterium tuberculosis does CCCCCCCCCCCCCCCCCC[C@@H]1CC[P@](=O)(OC)OC(C)=C1C(=O)OC (racemic) have?
**Result** 7.47 molar excess

---

Reported XI50 values for a set of molecules
- Tgt: Cutinase 1 (Fusarium vanettenii) (UniProt P00590)
- Sequence (whole entry): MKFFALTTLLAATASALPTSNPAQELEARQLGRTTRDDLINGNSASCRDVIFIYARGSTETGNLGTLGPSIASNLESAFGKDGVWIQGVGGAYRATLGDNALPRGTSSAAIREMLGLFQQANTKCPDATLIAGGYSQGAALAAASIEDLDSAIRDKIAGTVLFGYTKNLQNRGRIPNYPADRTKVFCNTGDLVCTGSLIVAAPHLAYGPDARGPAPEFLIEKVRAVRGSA
- Test description: Inhibition of Fusarium solani pisi cutinase pre-incubated for 30 mins with enzyme before substrate addition by pH-stat technique
Give the quantity in molar excess, number only.

Reference set, count: 4
CCCCCCCCCCCC[C@@H]1CC[P@@](=O)(OC)OC(C)=C1C(=O)OC (racemic) : 2
CCCCCCCCCCCCCCCCCC[C@@H]1CC[P@@](=O)(OC)OC(C)=C1C(=O)OC (racemic) : 1.18
CCCCCCCCCCCCCCCCCC[C@@H]1CC[P@](=O)(OC)OC(C)=C1C(=O)OC (racemic) : 7.26
CO[P@]1(=O)OC[C@H]2COC(=O)C2=C(C)O1 (racemic) : 0.96

Kindly consider the entry below.
**Query** # get_value(readout='XI50', item= CCCCC[C@@H]1CC[P@@](=O)(OC)OC(C)=C1C(=O)OC (racemic) )
**Result** 1.42

Origin of measurements: ChEMBL document CHEMBL2177030
